System: panel of hematologic and solid cancer lines
Assay: 6-day in vitro growth/death assay
Assay type: cell-based, human
Conditions: Homo sapiens, NCI-H647, NCI-H647; read-out: gIC50
experimental_endpoint: IC50 (nM)
One number for each entry, in nM.

Prompt line: Look up IC50: `O=C(NC[C@H](O)CN1CCc2ccccc2C1)c1ccnc(NC2CCC2)c1`
Response line: 2530

---

Test system: panel of 240 cancer cell lines
Assay: 10-day growth/death assay (Eurofins panel)
Assay type: cell-based
Settings: Homo sapiens, SCC-4, SCC-4; read-out: gIC50
experimental_endpoint: pIC50
One number for each entry, as −log10 of the molar value.

Prompt line: Reported pIC50 for `O=C(NC[C@H](O)CN1CCc2ccccc2C1)c1ccnc(NC2CCC2)c1` : what is it?
Response line: 6.54
